Catalogue of compounds with associated inhibition at 1 µM
# ASSAY TARGET: Jak1 (GST-tagged human Jak1 kinase domain, amino acids 866-1154) (Homo sapiens (Human))
# Sequence (P23458 866-1154): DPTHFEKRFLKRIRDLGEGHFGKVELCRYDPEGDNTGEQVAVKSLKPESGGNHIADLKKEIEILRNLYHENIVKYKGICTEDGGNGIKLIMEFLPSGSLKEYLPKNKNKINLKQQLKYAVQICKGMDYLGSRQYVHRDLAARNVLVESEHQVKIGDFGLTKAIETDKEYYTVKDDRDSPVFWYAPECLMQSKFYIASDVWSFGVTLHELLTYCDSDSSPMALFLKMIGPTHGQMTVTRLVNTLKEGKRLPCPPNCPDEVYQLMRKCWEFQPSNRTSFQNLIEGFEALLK
# ASSAY INFO: Jak1 inhibition assay (Omnia kinase assay)
# Type: biochemical
# EXPERIMENTAL CONTEXT: read-out: Jak1 (% inhibition at 1000 nM); Table 2; 1000 nM test compound
Number first, unit second.

Inquiry: Test system Jak1 (GST-tagged human Jak1 kinase domain, amino acids 866-1154) (Homo sapiens (Human)); read-out inhibition at 1 µM; what value for C[C@@H](NC(=O)c1cnn2ccc(N3CCC[C@@H]3c3cncc(F)c3)nc12)C1CC1 ?
Reply text: 22%

Inquiry: Then this compound: CC1(NC(=O)c2cnn3ccc(N4CCC[C@@H]4c4cncc(F)c4)nc23)CC1
Reply text: 20.3%

Inquiry: Then this compound: C[C@H](NC(=O)c1cnn2ccc(N3CCC[C@@H]3c3cncc(F)c3)nc12)C1CC1
Reply text: 36.4%

Inquiry: Then this compound: CC(C)NC(=O)c1cnn2ccc(N3CCC[C@@H]3c3cncc(F)c3)nc12
Reply text: 19.7%

###

Catalogue of molecules with associated inhibition at 1 µM
# ASSAY TARGET: Jak2 (human Jak2 kinase domain, amino acids 808-1132) (Homo sapiens (Human), UniProt O60674)
# Sequence (O60674 808-1132): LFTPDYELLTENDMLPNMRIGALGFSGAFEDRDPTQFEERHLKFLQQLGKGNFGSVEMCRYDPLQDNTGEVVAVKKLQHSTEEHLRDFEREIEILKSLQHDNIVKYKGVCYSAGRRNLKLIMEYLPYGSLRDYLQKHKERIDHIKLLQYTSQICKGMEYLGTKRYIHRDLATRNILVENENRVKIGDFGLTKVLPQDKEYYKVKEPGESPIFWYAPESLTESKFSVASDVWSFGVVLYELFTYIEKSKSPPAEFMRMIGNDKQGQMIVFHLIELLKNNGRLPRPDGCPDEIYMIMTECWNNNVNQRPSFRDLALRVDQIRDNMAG
# ASSAY INFO: Jak2 inhibition assay (Omnia kinase assay)
# Assay type: biochemical
# EXPERIMENTAL CONTEXT: read-out: Jak2 Enzyme (% inhibition at 1000 nM), Table 1; 1000 nM test compound
Expressed in %, but write only the number.

molecule=COc1ncc(F)cc1[C@H]1CCCN1c1ccn2ncc(C(=O)NC3CCN(S(C)(=O)=O)CC3)c2n1 endpoint="inhibition at 1 µM" reported_measurement=66.2
molecule=CS(=O)(=O)N1CCC(NC(=O)c2cnn3ccc(N4CCC[C@@H]4c4cc(F)ccc4F)nc23)CC1 endpoint="inhibition at 1 µM" reported_measurement=71.5
molecule=O=C(N[C@H]1CC[C@H](O)CC1)c1cnn2ccc(N3CCC[C@@H]3c3cc(F)ccc3F)nc12 endpoint="inhibition at 1 µM" reported_measurement=90
molecule=CONC(=O)c1cnn2ccc(N3CCC[C@@H]3c3cc(F)cnc3OC)nc12 endpoint="inhibition at 1 µM" reported_measurement=26.3
molecule=O=C(c1cnn2ccc(N3CCC[C@@H]3c3cc(F)ccc3F)nc12)N1CC[C@H](O)C1 endpoint="inhibition at 1 µM" reported_measurement=2.8

Inquiry: Which inhibition at 1 µM reading was recorded for the molecule O=C(N[C@H]1CCC[C@@H]1O)c1cnn2ccc(N3CCC[C@@H]3c3cncc(F)c3)nc12 ?
Reply text: 4.5

Inquiry: Then this molecule: CC[C@@H](CO)NC(=O)c1cnn2ccc(N3CCC[C@@H]3c3cc(F)ccc3F)nc12
Reply text: 16.9

Inquiry: Then this molecule: O=C(NCCO)c1cnn2ccc(N3CCC[C@@H]3c3cncc(F)c3)nc12
Reply text: 3.2

Inquiry: Then this molecule: O=C(NCCN1CCOCC1)c1cnn2ccc(N3CCC[C@@H]3c3cc(F)ccc3F)nc12
Reply text: 18.8

Inquiry: Then this molecule: C[C@H](O)[C@@H](CO)NC(=O)c1cnn2ccc(N3CCC[C@@H]3c3cc(F)ccc3F)nc12
Reply text: 6.3

Inquiry: Then this molecule: O=C(NCCn1ccnc1)c1cnn2ccc(N3CCC[C@@H]3c3cc(F)ccc3F)nc12
Reply text: 5

Inquiry: Then this molecule: COc1ncc(F)cc1[C@H]1CCCN1c1ccn2ncc(C(=O)NC[C@H](O)CO)c2n1
Reply text: 7

Inquiry: Then this molecule: Cc1ncc(F)cc1[C@H]1CCCN1c1ccn2ncc(C(=O)N3CC(O)C3)c2n1
Reply text: 0.3
